Experimental Target: human FOLR1 on cells (Hela, RPTEC/TERT1, OVCAR3, OV90, IGROV-1, JEG-3, KB, NCI-H441) (human, UniProt P15328 25-234)
Sequence (P15328 25-234): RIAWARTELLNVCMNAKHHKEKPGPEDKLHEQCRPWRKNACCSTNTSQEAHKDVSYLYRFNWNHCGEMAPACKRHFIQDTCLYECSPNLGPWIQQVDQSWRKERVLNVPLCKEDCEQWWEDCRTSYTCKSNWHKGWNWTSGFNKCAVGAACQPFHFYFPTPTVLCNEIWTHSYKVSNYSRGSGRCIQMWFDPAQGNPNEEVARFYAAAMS
Experiment Notes: cell-based or functional assay
Property: Internalization ratio (%), Hela, 4 h
One number for each entry, in %.

Worked cases, Internalization ratio (%), Hela, 4 h given:
{"columns": ["Binder", "Endpoint Unit", "Internalization ratio (%), Hela, 4 h"],
 "data": [
  ["FR107-ADC (reference antibody mirvetuximab huFR107 conjugated to mc-VC-PAB-MMAE) (antibody, V domains shown, mc-VC-PAB-MMAE on cysteine thiols after TCEP reduction (positions not stated; DAR within 3~4), Control conjugate) VH: QVQLVQSGAEVVKPGASVKISCKASGYTFTGYFMNWVKQSPGQSLEWIGRIHPYDGDTFYNQKFQGKATLTVDKSSNTAHMELLSLTSEDFAVYYCTRYDGSRAMDYWGQGTTVTVSS VL: DIVLTQSPLSLAVSLGQPAIISCKASQSVSFAGTSLMHWYHQKPGQQPRLLIYRASNLEAGVPDRFSGSGSKTDFTLTISPVEAEDAATYYCQQSREYPYTFGGGTKLEIK", "%", 58.4],
  ["F131-ADC (antibody F131 conjugated to mc-VC-PAB-MMAE) (antibody, V domains shown, mc-VC-PAB-MMAE on cysteine thiols after TCEP reduction (positions not stated; DAR within 3~4), Antibody-drug conjugate; also called F131 immunoconjugate) VH: EVQLLESGGGVVQPGRSLRLSCAASGFTFSSYGMHWVRQAPGKGLEWVAVISYDGSNKYYADSVKGRFTISRANSKNTLYLQMNSLRAEDTAVYYCARPRAYYGAYGSSFDYWGQGTQVTVSS VL: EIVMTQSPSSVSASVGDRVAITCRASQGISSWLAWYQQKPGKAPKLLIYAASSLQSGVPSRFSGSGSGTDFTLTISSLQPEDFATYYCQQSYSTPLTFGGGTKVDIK", "%", 50]
]}

Moving on to another binder below.
Prompt: Provide measured Internalization ratio (%), Hela, 4 h value, entry: F26-ADC (antibody F26 conjugated to mc-VC-PAB-MMAE) (antibody, V domains shown, mc-VC-PAB-MMAE on cysteine thiols after TCEP reduction (positions not stated; DAR within 3~4), Antibody-drug conjugate; also called F26 immunoconjugate) VH: EVQLLESGGGVVQRGRSLRLSCAASGFTFSSYGMHWVRQAPGKGLEWVAVISYDGSNKYYADSVKGRFTISRDNSKNTLYLPMNSLRAEDTAVYYCARPRAYYGAYGSSFDYWGQGTQVTVSS VL: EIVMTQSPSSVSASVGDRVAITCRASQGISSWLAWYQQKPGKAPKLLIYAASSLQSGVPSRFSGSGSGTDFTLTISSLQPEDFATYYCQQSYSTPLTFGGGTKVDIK
Response: 43.3
